- test-summary: Mouse blood levels of Example 1 following oral and subcutaneous administration
- Format: in vivo, albino male mice
- measurement-context: oral 50 mg/kg, 20 min, read-out: blood conc.
parameter: concentration at 20 min (ng/mL)
One number for each entry, in ng/mL.

State the recorded concentration at 20 min for this entry: CC(=O)C=C(C)CC1OCC(CC2OC2C(C)C(C)O)C(O)C1O (stereo not shown) [Example 1]
4800

* * *

- test-summary: Mouse blood levels of Example 3 following oral and subcutaneous administration
- Type: in vivo, albino male mice (strain OLAC: MF-1)
- measurement-context: oral 50 mg/kg, 60 min, read-out: blood conc.
parameter: concentration at 1 h

State the recorded concentration at 1 h for this entry: CCCCC(=O)C=C(C)CC1OCC(CC2OC2C(C)C(C)O)C(O)C1O (stereo not shown)
< 1500 ng/mL

* * *

- test-summary: Mean serum concentrations in milk weaned piglets after oral administration
- Assay type: in vivo
- measurement-context: pig, p.o. 50 mg/kg, 8 hr
parameter: concentration at 8 h

State the recorded concentration at 8 h for this entry: CCCCC(=O)C=C(C)CC1OCC(CC2OC2C(C)C(C)O)C(O)C1O (stereo not shown)
< 60 ng/mL

* * *

- test-summary: Mouse blood levels of Example 3 following oral and subcutaneous administration
- Format: in vivo, albino male mice (strain OLAC: MF-1)
- measurement-context: sc, subcutaneous 50 mg/kg, 60 min, read-out: blood conc.
parameter: concentration at 1 h

State the recorded concentration at 1 h for this entry: CCCCC(=O)C=C(C)CC1OCC(CC2OC2C(C)C(C)O)C(O)C1O (stereo not shown) [Example 3]
< 1500 ng/mL

* * *

- test-summary: Mean serum concentrations in neonatal piglets after intramuscular or oral administration
- Type: in vivo
- measurement-context: pig, po, p.o. 50 mg/kg, 4hr
parameter: concentration at 4 h

State the recorded concentration at 4 h for this entry: CCCCC(=O)C=C(C)CC1OCC(CC2OC2C(C)C(C)O)C(O)C1O (stereo not shown)
< 70 ng/mL

* * *

- test-summary: Serum binding by ultrafiltration
- Format: in vitro ADME
- measurement-context: pig, 8 mcg/ml, read-out: % Bound to Pig Serum (converted)
parameter: fraction unbound
Answers are plain numbers.

# example entries with known answers
molecule: CCC(=O)C=C(C)CC1OCC(CC2OC2C(C)C(C)O)C(O)C1O (stereo not drawn) [Example 2]
fraction unbound: 0.739
//
molecule: CCCCC(=O)C=C(C)CC1OCC(CC2OC2C(C)C(C)O)C(O)C1O (stereo not drawn) [Example 3]
fraction unbound: 0.469

State the recorded fraction unbound for this entry: CC(=O)C=C(C)CC1OCC(CC2OC2C(C)C(C)O)C(O)C1O (stereo not drawn) [Example 1]
0.852

* * *

- test-summary: Mean serum concentrations in neonatal piglets after intramuscular or oral administration
- Assay type: in vivo
- measurement-context: pig, im, i.m. 50 mg/kg, 2hr
parameter: concentration at 2 h (ng/mL)
One number for each entry, in ng/mL.

State the recorded concentration at 2 h for this entry: CCCCC(=O)C=C(C)CC1OCC(CC2OC2C(C)C(C)O)C(O)C1O (stereo not shown) [Example 3]
1300

* * *

- test-summary: Mouse blood levels of Example 3 following oral and subcutaneous administration
- Format: in vivo, albino male mice (strain OLAC: MF-1)
- measurement-context: oral 50 mg/kg, 5 min, read-out: blood conc.
parameter: concentration at 5 min
Reply with a number, then the unit it belongs to.

State the recorded concentration at 5 min for this entry: CCCCC(=O)C=C(C)CC1OCC(CC2OC2C(C)C(C)O)C(O)C1O (stereo not shown)
9400 ng/mL

* * *

- test-summary: Mean serum concentrations in neonatal piglets after intramuscular or oral administration
- Type: in vivo
- measurement-context: pig, im, i.m. 50 mg/kg, 10'
parameter: concentration at 10 min (ng/mL)
Numbers only, in ng/mL.

State the recorded concentration at 10 min for this entry: CCCCC(=O)C=C(C)CC1OCC(CC2OC2C(C)C(C)O)C(O)C1O (stereo not shown)
8500

* * *

- test-summary: Mean serum concentrations in milk weaned piglets after oral administration
- Type: in vivo
- measurement-context: pig, p.o. 50 mg/kg, 6 hr
parameter: concentration at 6 h (ng/mL)
One number for each entry, in ng/mL.

State the recorded concentration at 6 h for this entry: CCCCC(=O)C=C(C)CC1OCC(CC2OC2C(C)C(C)O)C(O)C1O (stereo not shown)
110
